The reported numbers originate from patent US20060276498A1.

Biological target: human Cot/Tpl2 kinase (Homo sapiens, UniProt P41279)
Construct: human Cot/Tpl2 kinase construct encoding residues 30-398; 6His (N); made in house; host or cells: Sf9 insect cells (baculovirus system, BD Biosciences)
Sequence (P41279 30-398): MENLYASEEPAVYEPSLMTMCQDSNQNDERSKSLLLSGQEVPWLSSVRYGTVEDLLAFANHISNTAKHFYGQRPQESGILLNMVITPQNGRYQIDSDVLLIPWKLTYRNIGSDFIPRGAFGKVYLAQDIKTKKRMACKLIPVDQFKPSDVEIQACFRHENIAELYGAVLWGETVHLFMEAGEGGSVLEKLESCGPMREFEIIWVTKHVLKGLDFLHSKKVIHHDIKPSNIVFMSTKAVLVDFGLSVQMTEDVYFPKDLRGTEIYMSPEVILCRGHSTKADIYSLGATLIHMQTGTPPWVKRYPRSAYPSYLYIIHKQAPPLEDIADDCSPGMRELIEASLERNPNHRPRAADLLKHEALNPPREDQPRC
Assay: Tpl2/Cot kinase assay, GST-MEK1 phosphorylation detected by ELISA (DELFIA Eu)
Format: biochemical
Details: Table 2; additional representative compounds
pIC50: −log10 of the molar value.
metric-name: pIC50

{"columns": ["compound", "metric-name", "measured-value"],
 "data": [
  ["N#Cc1cnc2cnc(NCc3cccnc3)cc2c1NCc1cccnc1 [Example 145]", "pIC50", "< 4.40"]
]}

Please go through the list and note pIC50 for each compound.
1. C[C@@H](Nc1cc2c(N[C@H](C)c3ccccc3)c(C#N)cnc2cn1)c1ccccc1 [Example 131]
2. C#CC(C)(C)Nc1c(C#N)cnc2cnc(NCc3cccnc3)cc12 [Example 138]

Completion:
6.25
< 4.40

====

Consider the following molecules; for each one, report its IC50.
Biological target: human Cot/Tpl2 kinase (Homo sapiens, UniProt P41279)
Construct: human Cot/Tpl2 kinase construct encoding residues 30-398; 6His (N); made in house; host or cells: Sf9 insect cells (baculovirus system, BD Biosciences)
Assay: Tpl2/Cot kinase assay, GST-MEK1 phosphorylation detected by ELISA (DELFIA Eu)
Type: biochemical
Settings: Table 1; 0.4 nM Tpl2, 35 nM GST-MEK1, 50 uM ATP, 1 h at 30° C.

Illustrative cases are given below, each with its answer.
{"columns": ["smiles-string", "IC50"],
 "data": [
  ["N#Cc1cnc2cnc(NCc3cccnc3)cc2c1Nc1ccc(Nc2ccccc2)cc1", "> 10 µM"],
  ["CC#Cc1cccc(Nc2c(C#N)cnc3cnc(NCCN4CCOCC4)cc23)c1", "> 10 µM"],
  ["N#Cc1cnc2cnc(NCc3cccnc3)cc2c1Nc1cc(Cl)cc(Cl)c1", "4.1 µM"],
  ["N#Cc1cnc2cnc(NCCN3CCOCC3)cc2c1Nc1cccc(C(=O)O)c1", "> 10 µM"]
]}

From here, focus on the item given below.
Prompt: Entry N#Cc1cnc2cnc(NCc3cccnc3)cc2c1Nc1ccc(Br)cc1 , system human Cot/Tpl2 kinase (Homo sapiens, UniProt P41279): what IC50 was measured?
Completion: > 10 µM
